- System: Haemophilus parasuis
- RUN DESCRIPTION: in vitro susceptibility, MIC by mini broth dilution
- Format: cell-based
OBSERVED PROPERTY: MIC values, Haemophilus parasuis

CCCN1C[C@H](C)[C@@H](O)[C@](C)(O)[C@@H](CC)OC(=O)[C@H](C)[C@@H](O[C@H]2C[C@@](C)(OC)[C@](O)(CNCC)[C@H](C)O2)[C@H](C)[C@@H](O[C@@H]2O[C@H](C)C[C@H](N(C)C)[C@H]2O)[C@](C)(O)C[C@H]1C	0.25 ug/mi
CCCN1C[C@H](C)[C@@H](O)[C@](C)(O)[C@@H](CC)OC(=O)[C@H](C)[C@@H](O[C@H]2C[C@@](C)(OC)[C@](O)(CNc3nc(OC)cc(OC)n3)[C@H](C)O2)[C@H](C)[C@@H](O[C@@H]2O[C@H](C)C[C@H](N(C)C)[C@H]2O)[C@](C)(O)C[C@H]1C	2 ug/mi

Okay, next one:
Noted MIC values, Haemophilus parasuis for CC[C@H]1OC(=O)[C@H](C)[C@@H](O[C@H]2C[C@@](C)(OC)[C@](O)(CNCCCC(=O)O)[C@H](C)O2)[C@H](C)[C@@H](O[C@@H]2O[C@H](C)C[C@H](N(C)C)[C@H]2O)[C@](C)(O)C[C@@H](C)NC[C@H](C)[C@@H](O)[C@]1(C)O , tested on Haemophilus parasuis: 1 ug/mi
